// reported pEC50 for each item listed
system: NL4-3; assay: Anti-HIV cytoprotection assay, wild type NL4-3; format: cell-based, HIV-1; conditions: Human immunodeficiency virus 1, NL43, CEM-SS
// pEC50 is dimensionless: -log10 of concentration (M)

>>> value("COCCOCCOCCOCCOc1ccc2[nH]c(C(=O)N3CCN(c4ncccc4NC(C)C)CC3)cc2c1")
6.06
>>> value("COCCOCCOCCOc1ccc2[nH]c(C(=O)N3CCN(c4ncccc4NC(C)C)CC3)cc2c1")
7.22
>>> value("COCCNc1ccc2[nH]c(C(=O)N3CCN(c4ncccc4NC(C)C)CC3)cc2c1")
7.70

# evaluate next
Identify measured pEC50 associated with COCCOCCNc1ccc2[nH]c(C(=O)N3CCN(c4ncccc4NC(C)C)CC3)cc2c1
7.10

----------
test system: A17K103N/Y181C; assay: Anti-HIV cytoprotection assay, drug resistant A17; type: cell-based; conditions: Human immunodeficiency virus 1, CEM-SS, HIV-1 strain A17K103N/Y181C, CEM-SS cells
readout_name: EC50

Worked examples follow.
>>> value("CC(C)Nc1cccnc1N1CCN(C(=O)c2cc3cc(NS(C)(=O)=O)ccc3[nH]2)CC1 [Delavirdine, reference compound]")
"> 500 nM"
>>> value("COCCOCCOCCOCCOc1ccc2[nH]c(C(=O)N3CCN(c4ncccc4NC(C)C)CC3)cc2c1 [mPEG4-O-Delavirdine, 5-O-mPEG4-Delavirdine]")
"> 5000 nM"
>>> value("COCCOCCNc1ccc2[nH]c(C(=O)N3CCN(c4ncccc4NC(C)C)CC3)cc2c1 [5-mPEG2-NH-Delavirdine]")
"> 1000 nM"
>>> value("COCCOCCOCCOc1ccc2[nH]c(C(=O)N3CCN(c4ncccc4NC(C)C)CC3)cc2c1 [mPEG3-O-Delavirdine, 5-O-mPEG3-Delavirdine]")
"> 5000 nM"
>>> value("Cc1cn([C@H]2C[C@H](N=[N+]=[N-])[C@@H](CO)O2)c(=O)[nH]c1=O [AZT, reference compound]")
"3 nM"
>>> value("COCCNc1ccc2[nH]c(C(=O)N3CCN(c4ncccc4NC(C)C)CC3)cc2c1 [5-mPEG1-NH-Delavirdine, 5-mPEG-NH-Delavirdine]")
"> 1000 nM"

# evaluate next
Identify measured EC50 associated with Cc1ccnc2c1NC(=O)c1cccnc1N2C1CC1 [Nevirapine, reference compound]
> 10000 nM

----------
experiment: Toxicity XTT in CEM-SS cells (cytoprotection assay); assay type: cell-based; conditions: human, CEM-SS TC50
Structures can show the parent of a compound that is named as a salt.
readout_name: CC50 (µM)
The reply should contain only the number, in µM.

Identify measured CC50 associated with CC(C)Nc1cccnc1N1CCN(C(=O)c2cc3cc(NS(C)(=O)=O)ccc3[nH]2)CC1 [Delavirdine Mesylate, reference compound]
27.2

----------
// reported pKa1 for each item listed
assay: pKa determination (Sirius GLpKa); format: physicochemical; settings: aqueous pKa, 25° C.
Lab note: record the figure alone, no unit after it.

Worked examples follow.
>>> value("COCCOCCOCCOc1ccc2[nH]c(C(=O)N3CCN(c4ncccc4NC(C)C)CC3)cc2c1 [mPEG3-O-Delavirdine, 5-O-mPEG3-Delavirdine]")
3.792
>>> value("COCCOCCOCCOCCOCCOc1ccc2[nH]c(C(=O)N3CCN(c4ncccc4NC(C)C)CC3)cc2c1 [mPEG5-O-Delavirdine, 5-O-mPEG5-Delavirdine]")
4.454
>>> value("COCCOCCOCCOCCOc1ccc2[nH]c(C(=O)N3CCN(c4ncccc4NC(C)C)CC3)cc2c1 [mPEG4-O-Delavirdine, 5-O-mPEG4-Delavirdine]")
4.275
>>> value("COCCOCCOCCOCCOCCOCCOc1ccc2[nH]c(C(=O)N3CCN(c4ncccc4NC(C)C)CC3)cc2c1 [mPEG6-O-Delavirdine, 5-O-mPEG6-Delavirdine]")
4.447
>>> value("COCCOCCOCCOCCOCCOCCOCCOCCOc1ccc2[nH]c(C(=O)N3CCN(c4ncccc4NC(C)C)CC3)cc2c1 [mPEG8-O-Delavirdine, 5-O-mPEG8-Delavirdine]")
4.667

Identify measured pKa1 associated with COCCOCCOCCOCCOCCOCCOCCOc1ccc2[nH]c(C(=O)N3CCN(c4ncccc4NC(C)C)CC3)cc2c1 [mPEG7-O-Delavirdine, 5-O-mPEG7-Delavirdine]
4.683

----------
test: in vitro; conditions: human, Caco-2, Papp
readout_name: Papp
Quick note: number first, unit second.

Identify measured Papp associated with CC(C)NCC(O)COc1cccc2ccccc12 (stereo not shown) [Propranolol]
20.8 ×10⁻⁶ cm/s

----------
test system: CEM-SS cells; assay: Toxicity XTT in CEM-SS cells (cytoprotection assay); format: cell-based; settings: human
Structures can show the parent of a compound that is named as a salt.
readout_name: CC50 (µM)
The reply should contain only the number, in µM.

Identify measured CC50 associated with CC(C)Nc1cccnc1N1CCN(C(=O)c2cc3cc(NS(C)(=O)=O)ccc3[nH]2)CC1 [Delavirdine Mesylate, reference compound]
52.4

----------
system: NL4-3P236L; assay: Anti-HIV cytoprotection assay, drug resistant NL4-3 P236L; type: cell-based; conditions: Human immunodeficiency virus 1, CEM-SS, HIV-1 strain NL4-3P236L, CEM-SS cells
readout_name: EC50

Worked examples follow.
>>> value("Cc1ccnc2c1NC(=O)c1cccnc1N2C1CC1 [Nevirapine, reference compound]")
"300 nM"
>>> value("COCCOCCOCCOc1ccc2[nH]c(C(=O)N3CCN(c4ncccc4NC(C)C)CC3)cc2c1 [mPEG3-O-Delavirdine, 5-O-mPEG3-Delavirdine]")
"> 5000 nM"
>>> value("CC(C)Nc1cccnc1N1CCN(C(=O)c2cc3cc(NS(C)(=O)=O)ccc3[nH]2)CC1 [Delavirdine, reference compound]")
"> 500 nM"
>>> value("COCCNc1ccc2[nH]c(C(=O)N3CCN(c4ncccc4NC(C)C)CC3)cc2c1 [5-mPEG1-NH-Delavirdine, 5-mPEG-NH-Delavirdine]")
"> 1000 nM"
>>> value("COCCOCCOCCOCCOc1ccc2[nH]c(C(=O)N3CCN(c4ncccc4NC(C)C)CC3)cc2c1 [mPEG4-O-Delavirdine, 5-O-mPEG4-Delavirdine]")
"> 5000 nM"

# evaluate next
Identify measured EC50 associated with COCCOCCNc1ccc2[nH]c(C(=O)N3CCN(c4ncccc4NC(C)C)CC3)cc2c1 [5-mPEG2-NH-Delavirdine]
230 nM

----------
// reported pIC50 for each item listed
molecular target: Wild Type RT (Human immunodeficiency virus type 1 group M subtype B, UniProt P04585); assay: HIV-1 Reverse Transcriptase Inhibition Assay; format: biochemical; conditions: Wild Type RT IC50
// pIC50 is dimensionless: -log10 of concentration (M)

Worked examples follow.
>>> value("COCCNc1ccc2[nH]c(C(=O)N3CCN(c4ncccc4NC(C)C)CC3)cc2c1 [5-mPEG1-NH-Delavirdine, 5-mPEG-NH-Delavirdine]")
6.60
>>> value("COCCOCCOCCOCCOCCOCCOc1ccc2[nH]c(C(=O)N3CCN(c4ncccc4NC(C)C)CC3)cc2c1 [mPEG6-O-Delavirdine, 5-O-mPEG6-Delavirdine]")
6.54
>>> value("COCCOCCOCCOCCOCCOCCOCCOc1ccc2[nH]c(C(=O)N3CCN(c4ncccc4NC(C)C)CC3)cc2c1 [mPEG7-O-Delavirdine, 5-O-mPEG7-Delavirdine]")
6.15
>>> value("COCCOCCOCCOCCOc1ccc2[nH]c(C(=O)N3CCN(c4ncccc4NC(C)C)CC3)cc2c1 [mPEG4-O-Delavirdine, 5-O-mPEG4-Delavirdine]")
6.55
>>> value("COCCOCCOCCOCCOCCOCCOCCOCCOc1ccc2[nH]c(C(=O)N3CCN(c4ncccc4NC(C)C)CC3)cc2c1 [mPEG8-O-Delavirdine, 5-O-mPEG8-Delavirdine]")
6.31
>>> value("COCCOCCOCCOCCOCCOc1ccc2[nH]c(C(=O)N3CCN(c4ncccc4NC(C)C)CC3)cc2c1 [mPEG5-O-Delavirdine, 5-O-mPEG5-Delavirdine]")
6.89

Identify measured pIC50 associated with COCCOCCNc1ccc2[nH]c(C(=O)N3CCN(c4ncccc4NC(C)C)CC3)cc2c1 [5-mPEG2-NH-Delavirdine]
6.24

Identify measured pIC50 associated with COCCOCCOCCOc1ccc2[nH]c(C(=O)N3CCN(c4ncccc4NC(C)C)CC3)cc2c1 [mPEG3-O-Delavirdine, 5-O-mPEG3-Delavirdine]
7.30

Identify measured pIC50 associated with COCCOCCOCCNc1ccc2[nH]c(C(=O)N3CCN(c4ncccc4NC(C)C)CC3)cc2c1 [5-mPEG3-NH-Delavirdine]
6.00

----------
Assay: in vitro
Format: in vitro ADME
Conditions: human, Caco-2, pH 7.4, Test 1, 10 μM, 2 hours; read-out: Recovery (%) B→A
Protocol: Each determination was performed in duplicate. Vr is the volume of the receiver compartment in cm^3. Vd is the volume of the donor compartment in cm^3. A is the area of the cell monolayer (1.13 cm^2 for 12-well Transwell®). CN is the nominal dosing concentration of the dosing solution in μM. CA is the average of the nominal dosing concentration and the measured 120 minute donor concentration in μM. Cr^final is the receiver concentration in μM at the end of the incubation period. […]
readout_name: recovery at 2 h, 10 μM
Quick note: number first, unit second.

Identify measured recovery at 2 h, 10 μM associated with COCCOCCOCCOCCOCCOCCOCCOc1ccc2[nH]c(C(=O)N3CCN(c4ncccc4NC(C)C)CC3)cc2c1
69%

Identify measured recovery at 2 h, 10 μM associated with COCCOCCOCCOc1ccc2[nH]c(C(=O)N3CCN(c4ncccc4NC(C)C)CC3)cc2c1
61%

Identify measured recovery at 2 h, 10 μM associated with COCCOCCOCCOCCOCCOCCOCCOCCOc1ccc2[nH]c(C(=O)N3CCN(c4ncccc4NC(C)C)CC3)cc2c1
82%

Just for reference, patent US9421204B2 is where these values come from.
